EXPERIMENTAL SYSTEM: IRAK4 (Homo sapiens, UniProt Q9NWZ3)
Construct: Degradation of IRAK4 in OCI-LY10 was quantitatively measured using Meso Scale Discovery technology; endogenous in cells; host or cells: OCI-LY10
Sequence (Q9NWZ3 1-460): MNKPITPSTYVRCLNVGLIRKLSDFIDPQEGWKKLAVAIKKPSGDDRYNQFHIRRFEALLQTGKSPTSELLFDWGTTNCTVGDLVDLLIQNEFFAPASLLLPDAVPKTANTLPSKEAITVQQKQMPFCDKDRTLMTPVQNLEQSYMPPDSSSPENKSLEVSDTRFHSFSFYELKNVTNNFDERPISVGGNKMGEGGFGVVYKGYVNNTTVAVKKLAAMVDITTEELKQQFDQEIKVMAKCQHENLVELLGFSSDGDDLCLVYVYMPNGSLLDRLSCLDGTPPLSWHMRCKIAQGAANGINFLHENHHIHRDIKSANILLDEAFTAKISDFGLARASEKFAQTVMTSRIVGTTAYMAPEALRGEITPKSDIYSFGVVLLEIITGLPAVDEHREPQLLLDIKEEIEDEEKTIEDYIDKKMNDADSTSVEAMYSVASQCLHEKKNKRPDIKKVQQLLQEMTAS
EXPERIMENTAL PROTOCOL: IRAK4 MSD Degradation in OCI-LY10
Format: cell-based
COND: OCI-LY10 cells, 4 hrs incubation, MSD; read-out: IRAK4 degradation in OCI-LY10 at 4 hrs: DC50
Listed here: items and their measured DC50.

MOLECULE	DATA VALUE
Cn1c(=O)n(C2CCC(=O)NC2=O)c2cccc(C#CCC3CCN(C[C@H]4CC[C@H](n5cc(NC(=O)c6cnn7ccc(N8C[C@H]9CC8CO9)nc67)c(C(F)F)n5)CC4)CC3)c21 (some centres unmarked) [I-15]	> 200 nM
Cc1cccc(C(=O)Nc2ccc3nn([C@H]4CC[C@H](CN5CC[C@H](c6cccc7c6n(C)c(=O)n7C6CCC(=O)NC6=O)[C@H](F)C5)CC4)cc3c2)n1 (some centres unmarked) [I-623]	> 200 nM
Cn1c(=O)n(C2CCC(=O)NC2=O)c2cccc(C#CCOC3CC4CC3CN4C[C@H]3CC[C@H](n4cc(NC(=O)c5cnn6ccc(N7C[C@H]8C[C@@H]7CO8)nc56)c(C(F)F)n4)CC3)c21 (some centres unmarked) [I-19]	100 to 200 nM
CC([C@H]1CC[C@H](n2cc(NC(=O)c3cnn4ccc(N5C[C@H]6C[C@@H]5CO6)nc34)c(C(F)F)n2)CC1)N1CCN(CCCc2cccc3c2n(C)c(=O)n3C2CCC(=O)NC2=O)CC1 (some centres unmarked) [I-195]	> 200 nM

Shifting focus to the molecule that follows.
q: Endpoint output: DC50 of CN(C[C@H]1CC[C@H](n2cc(NC(=O)c3cnn4ccc(N5CCO[C@H](C(F)F)C5)nc34)c(C(F)F)n2)CC1)C1CCN(c2cccc3c2n(C)c(=O)n3C2CCC(=O)NC2=O)CC1(F)F (some centres unmarked) [I-536] . Value?
a: > 200 nM

###

The entries below are paired with their reported DC50.
EXPERIMENTAL SYSTEM: IRAK4 (Homo sapiens)
Construct: Degradation of IRAK4 in OCI-LY10 was quantitatively measured using Meso Scale Discovery technology; endogenous in cells; host or cells: OCI-LY10
EXPERIMENTAL PROTOCOL: IRAK4 MSD Degradation in OCI-LY10
Type: cell-based
COND: OCI-LY10 cells, 24 hrs incubation, MSD; read-out: IRAK4 degradation in OCI-LY10 at 24 hrs: DC50

MOLECULE	EXPERIMENTAL SYSTEM	MEASUREMENT KIND	DATA VALUE
O=C1CCN(c2cncc3c2cccc3[C@H]2C[C@@H](CN3CCN(C[C@H]4CC[C@H](n5cc(NC(=O)c6cnn7ccc(N8C[C@H]9C[C@@H]8CO9)nc67)c(C(F)F)n5)CC4)CC3)C2)C(=O)N1	IRAK4 (Homo sapiens)	DC50	> 200 nM
COc1cc2nn([C@H]3CC[C@H](CN4CCC5(CC4)CCN(c4cccc6c4n(C)c(=O)n6C4CCC(=O)NC4=O)CC5)CC3)cc2cc1NC(=O)c1cncc(OC(F)(F)F)c1 (some centres unmarked)	IRAK4 (Homo sapiens)	DC50	> 200 nM
Cn1c(=O)n(C2CCC(=O)NC2=O)c2cccc([C@H]3CCN(C[C@H]4CC[C@H](n5cc6cc(NC(=O)c7cccc(C(F)(F)F)n7)ncc6n5)CC4)C[C@@H]3F)c21 (some centres unmarked) [I-657]	IRAK4 (Homo sapiens)	DC50	> 200 nM
CN1CC2(CCN(c3ccn4ncc(C(=O)Nc5cn([C@H]6CC[C@H](CN7CCN(CC#Cc8cccc9c8n(C)c(=O)n9C8CCC(=O)NC8=O)CC7)CC6)nc5C(F)F)c4n3)CC2)C1 (some centres unmarked)	IRAK4 (Homo sapiens)	DC50	> 200 nM
CCc1ccn2ncc(C(=O)Nc3cn([C@H]4CC[C@H](CN5CCN(CC#Cc6cccc7c6n(C)c(=O)n7C6CCC(=O)NC6=O)CC5)CC4)nc3C(F)F)c2n1 (some centres unmarked)	IRAK4 (Homo sapiens)	DC50	10 to 100 nM

q: What value of DC50 has been reported for the following molecule? CN(C[C@H]1CC[C@H](n2cc(NC(=O)c3cnn4ccc(N5CCC5)nc34)c(C(F)F)n2)CC1)C1CCN(c2cccc3c2n(C)c(=O)n3C2CCC(=O)NC2=O)CC1(F)F (some centres unmarked)
a: > 200 nM

q: // DC50 lookup, key: Cn1c(=O)n(C2CCC(=O)NC2=O)c2cccc([C@H]3C[C@@H]3CN3CCN(C[C@H]4CC[C@H](n5cc(NC(=O)c6cnn7ccc(N8C[C@H]9CC8CO9)nc67)c(C(F)F)n5)CC4)CC3)c21 (some centres unmarked)
a: > 200 nM

q: What DC50 value was documented for this molecule, Cn1c(=O)n(C2CCC(=O)NC2=O)c2cccc(C3CN([C@H]4CCN([C@H]5CC[C@H](n6cc(NC(=O)c7cnn8ccc(N9C[C@H]%10C[C@@H]9CO%10)nc78)c(C(F)F)n6)CC5)CC4(F)F)C3)c21 (some centres unmarked) ?
a: > 200 nM

q: Name the reported DC50 value associated with the molecule CN(C[C@H]1CC[C@H](n2cc(NC(=O)c3cnn4ccc(N5CC(O)C5)nc34)c(C(F)F)n2)CC1)C1CCN(c2cccc3c2n(C)c(=O)n3C2CCC(=O)NC2=O)CC1(F)F (some centres unmarked)
a: > 200 nM

q: Entry CN(C[C@H]1CC[C@H](n2cc3cc(NC(=O)c4cccc(C(F)(F)F)n4)c(S(C)(=N)=O)cc3n2)CC1)C1CCN(c2cccc3c2n(C)c(=O)n3C2CCC(=O)NC2=O)CC1F (some centres unmarked) has what DC50?
a: > 200 nM

###

EXPERIMENTAL SYSTEM: IRAK4 (Homo sapiens)
Construct: Degradation of IRAK4 in OCI-LY10 was quantitatively measured using Meso Scale Discovery technology; endogenous in cells; host or cells: OCI-LY10
EXPERIMENTAL PROTOCOL: IRAK4 MSD Degradation in OCI-LY10
Format: cell-based
COND: OCI-LY10 cells, 4 hrs incubation, MSD; read-out: IRAK4 degradation in OCI-LY10 at 4 hrs: DC50
Catalogue of compounds with associated DC50

COMPOUND	DATA VALUE
COc1nc(NC(=O)c2cccc(C(F)(F)F)n2)cc2cn([C@H]3CC[C@H](CN4CC[C@H](c5cccc6c5n(C)c(=O)n6C5CCC(=O)NC5=O)[C@@H](F)C4)CC3)nc12 (stereo partly drawn)	> 200 nM
Cn1c(=O)n(C2CCC(=O)NC2=O)c2cccc([C@@H]3CCN(C[C@H]4CC[C@H](n5cc6cc(NC(=O)c7cccc(C(F)F)n7)c(C(C)(C)O)cc6n5)CC4)C[C@H]3F)c21 (stereo partly drawn)	> 200 nM

Now look at this one.
q: DC50 lookup needed for Cn1c(=O)n(C2CCC(=O)NC2=O)c2cccc(C#CCOC3CCN(C[C@H]4CC[C@H](n5cc(NC(=O)c6cnn7ccc(N8CCC9(CCOCC9)C8)nc67)c(C(F)F)n5)CC4)CC3)c21 (stereo partly drawn) , thanks.
a: 10 to 100 nM

###

EXPERIMENTAL SYSTEM: IRAK4 (Homo sapiens)
Construct: Degradation of IRAK4 in OCI-LY10 was quantitatively measured using Meso Scale Discovery technology; endogenous in cells; host or cells: OCI-LY10
Sequence (Q9NWZ3 1-460): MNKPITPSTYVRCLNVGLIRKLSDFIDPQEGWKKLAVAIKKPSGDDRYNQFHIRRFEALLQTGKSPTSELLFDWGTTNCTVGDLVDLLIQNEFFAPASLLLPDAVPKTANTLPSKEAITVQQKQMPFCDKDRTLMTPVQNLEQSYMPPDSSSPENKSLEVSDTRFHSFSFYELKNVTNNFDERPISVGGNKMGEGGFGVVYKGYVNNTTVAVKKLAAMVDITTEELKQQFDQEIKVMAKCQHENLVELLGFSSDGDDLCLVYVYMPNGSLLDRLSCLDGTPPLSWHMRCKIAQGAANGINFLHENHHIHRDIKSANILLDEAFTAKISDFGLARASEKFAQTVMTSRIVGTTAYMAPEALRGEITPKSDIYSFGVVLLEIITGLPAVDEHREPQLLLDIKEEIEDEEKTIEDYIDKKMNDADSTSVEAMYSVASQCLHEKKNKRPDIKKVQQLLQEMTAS
EXPERIMENTAL PROTOCOL: IRAK4 MSD Degradation in OCI-LY10
Format: cell-based
COND: OCI-LY10 cells, 24 hrs incubation, MSD; read-out: IRAK4 degradation in OCI-LY10 at 24 hrs: DC50
Item-by-item account of DC50

Solved cases below.
COMPOUND	EXPERIMENTAL SYSTEM	DATA VALUE
Cn1c(=O)n(C2CCC(=O)NC2=O)c2cccc(C#CCN3CCC(C[C@H]4CC[C@H](n5cc6cc(NC(=O)c7cccc(C(F)(F)F)n7)ccc6n5)CC4)CC3)c21 (some centres unmarked)	IRAK4 (Homo sapiens)	> 200 nM
CC(C)(O)c1cc2nn([C@H]3CC[C@H](CNCCCCCCNc4cccc5c4C(=O)N(C4CCC(=O)NC4=O)C5=O)CC3)cc2cc1NC(=O)c1cccc(C(F)(F)F)n1 (some centres unmarked)	IRAK4 (Homo sapiens)	< 10 nM
CC(C)(O)c1cc2nn([C@H]3CC[C@H](CN4CCC5(CC4)CC(CCNc4cccc6c4C(=O)N(C4CCC(=O)NC4=O)C6=O)C5)CC3)cc2cc1NC(=O)c1cccc(C(F)(F)F)n1 (some centres unmarked)	IRAK4 (Homo sapiens)	10 to 100 nM

q: # query: DC50 of entry COc1cc2nn([C@H]3CC[C@H](CN4CCC5(CC4)CCN(c4cccc6c4n(C)c(=O)n6C4CCC(=O)NC4=O)CC5)CC3)cc2cc1NC(=O)c1cncc(OC(F)F)c1 (some centres unmarked)
a: > 200 nM

q: Reported DC50 for C[C@@H]1CN(c2ccn3ncc(C(=O)Nc4cn([C@H]5CC[C@H](CN(C)C6CCN(c7cccc8c7n(C)c(=O)n8C7CCC(=O)NC7=O)CC6)CC5)nc4C(F)F)c3n2)C[C@H](C)O1 (some centres unmarked) : what is it?
a: < 10 nM
